Experiment: RP, Waters ACQUITY UPLC BEH C18, 38 °C, 0.24 mL/min; A: water + 0.1% formic acid, pH 3; B: acetonitrile + 0.1% formic acid, pH 3; gradient (min/%B) 0/0 0.25/0 0.4/9 0.8/17 1.9/100 2.1/100 2.11/0 3/0
Conditions: stereoisomer not certain
Assign class by LC retention time: not lower than 1 min means TRUE; lower than 1 min means FALSE.

> print(dat)
                                   compound  assigned.label
1                        CSCC[C@H](N)C(=O)O           FALSE
2               O=C(O)c1cc(=O)c2ccccc2[nH]1            TRUE
3  OCC1OC(OCC2OC(O)C(O)C(O)C2O)C(O)C(O)C1O (stereo not given)           FALSE
4  OCC1OC(OC2C(Oc3cc4c(O)cc(O)cc4[o+]c3-c3ccc(O)c(O)c3)OC(CO)C(O)C2O)C(O)C(O)C1O (stereo not given)            TRUE
5                       O=C(O)C=Cc1cnc[nH]1           FALSE

====

Test: RP, Waters ACQUITY UPLC BEH C18, 38 °C, 0.24 mL/min; A: water + 0.1% formic acid, pH 3; B: acetonitrile + 0.1% formic acid, pH 3; gradient (min/%B) 0/0 0.25/0 0.4/9 0.8/17 1.9/100 2.1/100 2.11/0 3/0
Conditions: stereoisomer not certain
Structures can show the parent of a compound that is named as a salt.
ATTRIBUTE_MEASURED: LC retention time (min)

> print(dat)
                                    compound  measured.number
 1                                 CNCC(=O)O             0.16
 2  CC(=O)OCC1OC(Oc2c(-c3ccc(O)c(O)c3)oc3cc(O)cc(O)c3c2=O)C(O)C(O)C1O (stereo not given) [Quercetin-3-O-glucose-6''-acetate]             1.46
 3                          CC(C(=O)O)C(=O)O             0.54
 4         O=c1cc[nH]cc1 [4-Hydroxypyridine]             0.25
 5                                    NCCCCN             0.14
 6                     CC(C)c1cccc(O)c(=O)c1             1.49
 7                               CS(=O)(=O)O             0.17
 8  C[N+](C)(C)CCOP(=O)([O-])OCC(O)CO (stereo not given) [sn-Glycero-3-phosphocholine 1:1 cadmium chloride adduct]             0.17
 9  CC(C)(CO)C(O)C(=O)NCCC(=O)O (stereo not drawn) [Calcium (+)-pantothenate]             1.11
10             O=C(O)C(O)Cc1ccccc1 (racemic)             1.42
11  N[C@@H](Cc1ccc(O)c(O)c1)C(=O)O [3,4-Dihydroxy-L-phenylalanine]              0.4
12                           NCC(=O)NCC(=O)O             0.16
13                     COc1cccc(C=CC(=O)O)c1             1.67
14                        N[C@@H](CCO)C(=O)O             0.17
15  O=C1CC(c2ccc(O)c(O)c2)Oc2cc(OC3OC(CO)C(O)C(O)C3O)cc(O)c21 (stereo not given) [eriodictyol-7-O-glucoside]             1.41
16                          COc1ccccc1C(=O)O             1.47
17                             O=C(O)c1ccco1             1.15
18  O=P(O)(O)OC1C(O)C(O)C(OP(=O)(O)O)C(O)C1O (stereo not given)             2.13
19  Cc1ncc(COP(=O)(O)O)c(C=O)c1O [pyridoxal-5'-phosphate hydrate]             0.39
20  NC(CCC(=O)NC(CS)C(=O)O)C(=O)O (stereo not given)             0.55
21                            NCCCNCCCCNCCCN             0.14
22  COc1cc(/C=C/C(=O)O)ccc1O [trans-4-Hydroxy-3-methoxycinnamic acid]             1.44
23  OCC1OC(OC2(CO)OC(CO)C(O)C2O)C(O)C(O)C1O (stereo not given)             0.22
24  CC(=O)NCCCCN [N-acetyl putrescine hydrochloride]             0.23
25  CC(C)[C@@H](O)C(=O)O [D-alpha-Hydroxyisovaleric acid]             1.14
26  Nc1ccn(C2OC(CO)C(OP(=O)(O)O)C2O)c(=O)n1 (stereo not given) [Cytidine-3'-monophosphate]             0.36
27                Cn1c(=O)[nH]c2ncn(C)c2c1=O             1.15
28                  N=c1nc(N2CCCCC2)cc(N)n1O             1.32
29                    CC(CN)C(=O)O (racemic)             0.19
30  CC(C)(COP(=O)(O)OP(=O)(O)OCC1OC(n2cnc3c(N)ncnc32)C(O)C1O)C(O)C(=O)NCCC(=O)NCCS (stereo not given)             1.12
31                        CCCC[C@H](N)C(=O)O             0.57
32                                NCCCCNCCCN             0.14
33                            O=C(O)CCC(=O)O             0.49
34  NC(CCSCC(N)C(=O)O)C(=O)O (stereo not drawn) [L(+)-Cystathionine]             0.16
35  CC(=O)NCCCNCCCCNCCCN [N1-Acetylspermine Trihydrochloride]             0.14
36  O=C(O)C=C(CC(=O)O)C(=O)O [trans-Aconitic acid]             0.63
37  NCC(=O)CCC(=O)O [delta-Aminolevulinic acid hydrochloride]             0.18
38  NC(N)=NCCCC(N)C(=O)O (stereo not drawn) [L(+)-Arginine]             0.16
39  OCC1OC(Oc2cc3c(OC4OC(CO)C(O)C(O)C4O)cc(O)cc3[o+]c2-c2ccc(O)cc2)C(O)C(O)C1O (stereo not given) [Pelargonin chloride]             1.14
40                     O=C(O)CNC(=O)c1ccccc1             1.29

====

Assay: RP, Waters ACQUITY UPLC BEH C18, 38 °C, 0.24 mL/min; A: water + 0.1% formic acid, pH 3; B: acetonitrile + 0.1% formic acid, pH 3; gradient (min/%B) 0/0 0.25/0 0.4/9 0.8/17 1.9/100 2.1/100 2.11/0 3/0
Conditions: stereoisomer not certain
Counter-ions that a name gives are not always drawn.
ATTRIBUTE_MEASURED: LC retention time (min)

> print(dat)
                                   molecule    u  measured.number
1  OCC1OC(Oc2cc3c(O)cc(O)cc3[o+]c2-c2ccc(O)cc2)C(O)C(O)C1O (centres undefined) [Callistephin Chloride]  min             1.25
2                  Nc1nc2nc[nH]c2c(=O)[nH]1  min             0.32
3  Nc1nc2c(ncn2C2OC(COP(=O)(O)O)C(O)C2O)c(=O)[nH]1 (centres undefined) [Guanosine-5'-monophosphate]  min             0.44
4  O=c1cc(-c2ccc(O)c(O)c2)oc2c(C3OC(CO)C(O)C(O)C3O)c(O)cc(O)c12 (centres undefined)  min             1.35
5  Nc1ncnc2c1ncn2C1OC(COP(=O)(O)O)C(O)C1O (centres undefined) [Adenosine-5'-monophosphate sodium salt]  min             0.39
6  O=c1ccn(C2OC(COP(=O)(O)OP(=O)(O)OC3OCC(O)C(O)C3O)C(O)C2O)c(=O)[nH]1 (centres undefined)  min             0.21
7                       O=Cc1c[nH]c2ccccc12  min             1.51
8      NCCCCN=C(N)N [Agmatine sulfate salt]  min             0.15
9   CC1OC(O)C(O)C(O)C1O (centres undefined)  min             0.21
